The origin of these recorded values is ChEMBL document CHEMBL3988442.

# Target System: Aspartate--tRNA(Asp/Asn) ligase (Mycobacterium tuberculosis (strain ATCC 25618 / H37Rv))
# Test Description: Assay for Asp RNA synthetase-1 from Mycobacterium tuberculosis
# Assay type: functional
# Parameters: scale not given: in the data most compounds retested in dose-response had high values
# Stated Conditions: 30 µM
// reported Percent Effect for each item listed
Expressed in %, but write only the number.

The examples below pair each entry with its known result.
Lookup: Percent Effect / Aspartate--tRNA(Asp/Asn) ligase (Mycobacterium tuberculosis (strain ATCC 25618 / H37Rv)) / CCN1Cc2c(C(=O)NCC3CC3)ncn2-c2ccccc2S1(=O)=O
-3.35

Lookup: Percent Effect / Aspartate--tRNA(Asp/Asn) ligase (Mycobacterium tuberculosis (strain ATCC 25618 / H37Rv)) / CC(NC(=O)C1=NN(C)C(=O)CC1)c1ccc(F)cc1F (centres undefined)
-4.46

Lookup: Percent Effect / Aspartate--tRNA(Asp/Asn) ligase (Mycobacterium tuberculosis (strain ATCC 25618 / H37Rv)) / Cc1nc(CNCC2CN(C)CCO2)cs1 (centres undefined)
-3.4

Lookup: Percent Effect / Aspartate--tRNA(Asp/Asn) ligase (Mycobacterium tuberculosis (strain ATCC 25618 / H37Rv)) / Cc1nc(CN(Cc2cccs2)C2CCS(=O)(=O)C2)oc1C (centres undefined)
-1.77

Lookup: Percent Effect / Aspartate--tRNA(Asp/Asn) ligase (Mycobacterium tuberculosis (strain ATCC 25618 / H37Rv)) / c1cnn(CC2CN(Cc3noc(C4CC4)n3)CCO2)c1 (centres undefined)
0.485

More entries:
Lookup: Percent Effect / Aspartate--tRNA(Asp/Asn) ligase (Mycobacterium tuberculosis (strain ATCC 25618 / H37Rv)) / O=S1(=O)C[C@@H]2[C@H](C1)N(Cc1cc(Cl)cc(Cl)c1)CCN2CC1CC1
0.655

Lookup: Percent Effect / Aspartate--tRNA(Asp/Asn) ligase (Mycobacterium tuberculosis (strain ATCC 25618 / H37Rv)) / Cc1noc(Cl)c1CCC(=O)N1CCN(c2ncccn2)CC1
-3.2

Lookup: Percent Effect / Aspartate--tRNA(Asp/Asn) ligase (Mycobacterium tuberculosis (strain ATCC 25618 / H37Rv)) / O=C(NCc1csc(Br)c1)c1ccc(=O)[nH]n1
-0.83

Lookup: Percent Effect / Aspartate--tRNA(Asp/Asn) ligase (Mycobacterium tuberculosis (strain ATCC 25618 / H37Rv)) / Cc1ccc(CNC(=O)CN2CCN(CC(O)C3CC3)CC2)cc1 (centres undefined)
1.21

Lookup: Percent Effect / Aspartate--tRNA(Asp/Asn) ligase (Mycobacterium tuberculosis (strain ATCC 25618 / H37Rv)) / Cc1nc(C)n(CC2CCCN(CCCOc3ccccc3)C2)n1 (centres undefined)
0.568

Lookup: Percent Effect / Aspartate--tRNA(Asp/Asn) ligase (Mycobacterium tuberculosis (strain ATCC 25618 / H37Rv)) / Cc1cc(F)ccc1OC1(C(=O)O)CCN(Cc2cccnc2N)CC1
-3.76

Lookup: Percent Effect / Aspartate--tRNA(Asp/Asn) ligase (Mycobacterium tuberculosis (strain ATCC 25618 / H37Rv)) / Cn1cc(CN(Cc2ccccc2)CC(O)c2cccs2)cn1 (centres undefined)
0.353

Lookup: Percent Effect / Aspartate--tRNA(Asp/Asn) ligase (Mycobacterium tuberculosis (strain ATCC 25618 / H37Rv)) / O=c1c2sccc2nc2n1CCN(Cc1cccs1)CC2
6.74

Lookup: Percent Effect / Aspartate--tRNA(Asp/Asn) ligase (Mycobacterium tuberculosis (strain ATCC 25618 / H37Rv)) / Cc1[nH]ccc1C(=O)Nc1cccc(CN2CCC(CO)CC2)c1
-1.71

Lookup: Percent Effect / Aspartate--tRNA(Asp/Asn) ligase (Mycobacterium tuberculosis (strain ATCC 25618 / H37Rv)) / Cc1cc(C2CCCN(CCCNS(C)(=O)=O)C2)n[nH]1 (centres undefined)
-3.97

Lookup: Percent Effect / Aspartate--tRNA(Asp/Asn) ligase (Mycobacterium tuberculosis (strain ATCC 25618 / H37Rv)) / O=C(NC1CC1)[C@H]1CC[C@@H]2[C@@H](CCN2c2ncc(F)cn2)O1
-4.13

Lookup: Percent Effect / Aspartate--tRNA(Asp/Asn) ligase (Mycobacterium tuberculosis (strain ATCC 25618 / H37Rv)) / Cc1cc(CN2CCOC(CN(C)C)C2)no1 (centres undefined)
1.81

Lookup: Percent Effect / Aspartate--tRNA(Asp/Asn) ligase (Mycobacterium tuberculosis (strain ATCC 25618 / H37Rv)) / O=C1NCCN1C1CCN(Cc2nc(-c3ccoc3)no2)CC1
-7.34

Lookup: Percent Effect / Aspartate--tRNA(Asp/Asn) ligase (Mycobacterium tuberculosis (strain ATCC 25618 / H37Rv)) / CC(c1ccc(F)cc1)N1CCN(Cc2ccc(C#N)cc2)CC1 (centres undefined)
-0.88

Lookup: Percent Effect / Aspartate--tRNA(Asp/Asn) ligase (Mycobacterium tuberculosis (strain ATCC 25618 / H37Rv)) / Cc1nc(N(C)C)nc2c1COCC21CCN(CC2CC2)C1 (centres undefined)
3.96

Lookup: Percent Effect / Aspartate--tRNA(Asp/Asn) ligase (Mycobacterium tuberculosis (strain ATCC 25618 / H37Rv)) / CCOC(=O)NC(C(=O)NCc1ccc(N2CCCCC2)nc1)C(C)C (centres undefined)
-3.06

Lookup: Percent Effect / Aspartate--tRNA(Asp/Asn) ligase (Mycobacterium tuberculosis (strain ATCC 25618 / H37Rv)) / CCOc1ccc(Cl)c(C(=O)N2CCN(CCO)CC2)n1
0.455

Lookup: Percent Effect / Aspartate--tRNA(Asp/Asn) ligase (Mycobacterium tuberculosis (strain ATCC 25618 / H37Rv)) / NC(=O)CCOc1nc(-c2ccccc2Cl)no1
-4.51

Lookup: Percent Effect / Aspartate--tRNA(Asp/Asn) ligase (Mycobacterium tuberculosis (strain ATCC 25618 / H37Rv)) / Cc1noc(C2CCC3(CCN(C(=O)c4c(C)noc4C)CC3)O2)n1 (centres undefined)
-3.06
